# credit: patent US20140179896A1

molecular target: T1, human vascular endothelial growth factor receptor-2 Fc chimera (KDR-Fc) (human, UniProt P35968 20-764); assay: BIAcore, target-Fc immobilized
T1 construct: range 1-764; purchased from R&D Systems; also called hKDR; human VEGF-R2-Fc; not shown: human IgG1 Fc
T1 sequence (P35968 20-764 limits assumed, change not shown, form in doubt): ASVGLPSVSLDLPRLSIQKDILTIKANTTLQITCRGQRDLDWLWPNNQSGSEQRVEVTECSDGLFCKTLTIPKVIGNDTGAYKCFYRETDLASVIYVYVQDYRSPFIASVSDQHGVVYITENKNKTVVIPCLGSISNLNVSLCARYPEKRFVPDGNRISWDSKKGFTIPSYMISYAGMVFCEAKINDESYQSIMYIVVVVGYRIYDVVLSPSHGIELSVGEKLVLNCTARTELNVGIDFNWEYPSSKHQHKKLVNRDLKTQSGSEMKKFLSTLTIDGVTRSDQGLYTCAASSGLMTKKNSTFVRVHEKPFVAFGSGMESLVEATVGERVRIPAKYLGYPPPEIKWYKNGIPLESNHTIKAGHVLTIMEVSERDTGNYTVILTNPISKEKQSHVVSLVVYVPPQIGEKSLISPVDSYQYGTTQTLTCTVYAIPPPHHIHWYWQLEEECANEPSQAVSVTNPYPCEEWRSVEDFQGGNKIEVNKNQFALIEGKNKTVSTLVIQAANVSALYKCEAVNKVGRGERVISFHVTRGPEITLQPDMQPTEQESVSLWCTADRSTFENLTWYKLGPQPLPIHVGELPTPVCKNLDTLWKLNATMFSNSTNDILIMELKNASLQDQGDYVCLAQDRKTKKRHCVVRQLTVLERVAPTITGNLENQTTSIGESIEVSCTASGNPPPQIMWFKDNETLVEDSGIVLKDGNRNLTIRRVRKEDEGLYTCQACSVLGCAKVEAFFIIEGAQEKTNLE
Readout name: kon
Answer with the value and then the unit.

Consider the worked cases shown below.
M5FL (designed binder, extension and tag left out) VSDVPRDLEVVAATPTSLLISWRHPHFPTRYYRITYGETGGNSPVQEFTVPLQPPLATISGLKPGVDYTITGYAVTKERNGRELFTPISINYRT = 100000 M⁻¹ s⁻¹
E6 (designed binder, Del 1-8 10Fn3 clone; Flag-tagged in vitro translated protein in the radioactive assay, His6-tagged E. coli protein in BIAcore; tags left out) EVVAATPTSLLISWRHPHFPTRYYRITYGETGGNSPVQEFTVPLQPPTATISGLKPGVDYTITGYAVTDGWNGRLLSIPISINYRT = 890000 M⁻¹ s⁻¹
VR28 (designed binder, scaffold said to be unchanged from wild type 10Fn3; Flag-tagged in vitro translated protein in the radioactive assay, His6-tagged E. coli protein in BIAcore; tags left out; also called VR28 (I69T)) VSDVPRDLEVVAATPTSLLISWRHPHFPTRYYRITYGETGGNSPVQEFTVPLQPPTATISGLKPGVDYTITGYAVTVAQNDHELITPISINYRT = 30000 M⁻¹ s⁻¹
E29 (designed binder, Del 1-8 10Fn3 clone; Flag-tagged in vitro translated protein in the radioactive assay, His6-tagged E. coli protein in BIAcore and cell assays; tags left out) EVVAATPTSLLISWRHPHFPTRYYRITYGETGGNSPVQEFTVPLQPPTATISGLKPGVDYTITGYAVTVERNGRVLMTPISINYRT = 360000 M⁻¹ s⁻¹

QUERY: I have this binder here, E25 (designed binder, Del 1-8 10Fn3 clone; Flag-tagged in vitro translated protein in the radioactive assay, His6-tagged E. coli protein in BIAcore; tags left out) EVVAATPTSLLISWRHPHFPTRYYRITYGETGGNSPVQEFTVPLQPPTATISGLKPGVDYTITGYAVTLERNGRELMTPISINYRT , and I need its recorded kon.
RESULT: 250000 M⁻¹ s⁻¹
